- target or test system: T1, HLA-A*02:01 (human)
- T1 construct: MHC class I monomer of the UV-ligand exchange assay; also called peptide-receptive MHC molecules; MHC class I
- protocol details: UV peptide-exchange ELISA
Assign peptide exchange yield to each entry below.

In the examples that follow, each entry is paired with its recorded peptide exchange yield.
binder: SLLAELHVL
peptide exchange yield: 50 to 75%
//
binder: TLLADQGEIRV
peptide exchange yield: 20 to 50%
//
binder: VLGEYSYLL
peptide exchange yield: 50 to 75%

Report peptide exchange yield for each item below.
1. VLMWEIYSL
2. ILVVIEPLL
3. GLQENLDVVV
4. VVDGTCVAV
5. YLVELSSLL
6. ELLEGSEIYL

1: 50 to 75%; 2: ≥ 75%; 3: ≥ 75%; 4: 50 to 75%; 5: ≥ 75%; 6: 50 to 75%
